SYSTEM_NAME: T1, CD134 expressed on the cell surface of HT1080_OX40 cells (human, UniProt P43489 29-277)
T1 construct: whole, on cells; species not restated for the HT1080 transfectant
T1 sequence (looked up): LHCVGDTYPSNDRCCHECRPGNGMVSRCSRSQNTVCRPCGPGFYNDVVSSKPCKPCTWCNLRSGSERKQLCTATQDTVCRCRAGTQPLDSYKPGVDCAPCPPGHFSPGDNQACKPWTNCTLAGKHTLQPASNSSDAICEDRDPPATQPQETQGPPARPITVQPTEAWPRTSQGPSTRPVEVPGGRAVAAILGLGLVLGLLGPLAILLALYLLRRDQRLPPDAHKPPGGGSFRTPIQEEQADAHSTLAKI
EXPERIMENTAL_PROTOCOL: HT1080_OX40 cells, imaging; further: test concentration or dose not given here
ASSAY_ENDPOINT: Cellular binding assay [RFU] (RFU)
Give a bare numeral; the unit RFU is implied.

BINDER	UNIT_SPEC	Cellular binding assay [RFU]
P018.S.11.A.A03 (antibody, V domains shown, V regions on human Ig constant parts; also called AB134_20) VH: QSLEESGGDLVKPGASLTLPCTASGFTLSGYWMCWVRQAPGKGLEWIGCIYNGDGSTYYASWAKGRFTISKTSSTTVTLQMTSLTAADTATYFCARDSNGWGAYGLWGPGTLVTVSS VL: AIEMTQTPSSVSAAVGGTVTIDCQASQSIGSYLSWYQQKPGQPPKLLIYDASDLASGVPSRFSGSGSGTEFTLTISGVQSDDAATYYCQGGYYSSATEIAFGGGTEVVVK	RFU	459

// switching to the query binder
[in] Give the reported Cellular binding assay [RFU] for this binder. P018.S.02.A.F03 (antibody, V domains shown, V regions on human Ig constant parts; also called AB134_2) VH: QSVEESGGRLVTPGTPLTLTCTASGFSLSRYYMSWVRQAPGKGLEWIGFINTAGSAYYASWAKGRFTISRTSTTVDLKMTSLTTEDTATYFCARDLSRFSLWGRGTLVIVSS VL: AAVLTQTPSPVSAAVGGTVTINCQASPSVYSDYLSWFQKKPGQPPKLLIYWASTLASGVPSRFSGSGSGTQFTLTISDLESDDVATYYCAGGYSGNSDNWAFGGGTDVVVK
[out] 140
